The reported numbers originate from ChEMBL document CHEMBL1955841.

- assay comment: Clearance in rat at 1 mg/kg, iv
- Type: ADME, organism-based
- Set-up: dose 1 mg/kg, route intravenous
- run conditions: in vivo
test readout: clearance (L/h/kg)

{"structure string": "COc1cc2nncc(-c3cnc(N4CCC(C)(O)CC4)c(C)c3)c2cc1OC", "unit spec": "L/h/kg", "clearance": 2.15}
{"structure string": "COc1cc2nncc(-c3cnc(N4CCC(O)(c5ccccn5)CC4)c(Cl)c3)c2cc1OC", "unit spec": "L/h/kg", "clearance": 0.38}
{"structure string": "COc1cc2nncc(-c3cnc(N4CCC(C(C)(C)O)CC4)c(C4CC4)c3)c2cc1OC", "unit spec": "L/h/kg", "clearance": 0.94}
{"structure string": "COc1cc2nncc(-c3cnc(N4CCC(C(C)(C)O)CC4)c(C)c3)c2cc1OC", "unit spec": "L/h/kg", "clearance": 1.29}
{"structure string": "COc1cc2nncc(-c3cnc(N4CCC(O)(c5ccccn5)CC4)c(C)c3)c2cc1OC", "unit spec": "L/h/kg", "clearance": 0.18}
{"structure string": "COc1cc2nncc(-c3cnc(N4CCC(C(C)(C)O)CC4)c(Cl)c3)c2cc1OC", "unit spec": "L/h/kg", "clearance": 1.84}
{"structure string": "COc1cc2nncc(-c3ccc(N4CC(OC)C4)nc3)c2cc1OC", "unit spec": "L/h/kg", "clearance": 6.35}
{"structure string": "COc1cc2nncc(-c3cnc(N4CCC(C(C)(C)O)CC4)c(C(F)F)c3)c2cc1OC", "unit spec": "L/h/kg", "clearance": 0.8}

A: COC[C@H](C)Nc1ccc(-c2cnnc3cc(OC)c(OC)cc23)cn1
B: COc1cc2nncc(-c3ccc(N4CCC(O)(c5ccccn5)CC4)nc3)c2cc1OC
## Task Given A and given B , which shows the smaller recorded clearance? API: response body contains the label of the selected item.
## Result B
